From: patent US20110097323A1

Assign binding relative to wild-type Fc (fold) to each entry below.
# Experimental System: CD16A V158 (human, UniProt P08637 17-208, limits assumed)
# Sequence (P08637 17-208 F176V limits assumed): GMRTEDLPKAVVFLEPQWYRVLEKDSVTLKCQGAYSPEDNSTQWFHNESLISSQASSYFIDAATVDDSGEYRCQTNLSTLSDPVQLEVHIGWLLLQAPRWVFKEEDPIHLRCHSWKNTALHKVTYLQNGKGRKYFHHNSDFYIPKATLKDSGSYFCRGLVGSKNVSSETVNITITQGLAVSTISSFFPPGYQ
# Test Protocol: Table 3; relative to wild-type Fc; method not stated

Previously resolved entries follow.
Binder | binding relative to wild-type Fc (fold)
Fc variant R255L D270E Y300L P396L (other, UniProt P01857-1 99-330, looked up, name in EU numbering, domain: Fc region; positions are EU index) EPKSCDKTHTCPPCPAPELLGGPSVFLFPPKPKDTLMISLTPEVTCVVVDVSHEEPEVKFNWYVDGVEVHNAKTKPREEQYNSTLRVVSVLTVLHQDWLNGKEYKCKVSNKALPAPIEKTISKAKGQPREPQVYTLPPSRDELTKNQVSLTCLVKGFYPSDIAVEWESNGQPENNYKTTPLVLDSDGSFFLYSKLTVDKSRWQQGNVFSCSVMHEALHNHYTQKSLSLSPGK | 1.52
Fc variant D270E G316D P396L R416G (other, UniProt P01857-1 99-330, looked up, name in EU numbering, domain: Fc region; positions are EU index; also called D270E P396L G316D R416G) EPKSCDKTHTCPPCPAPELLGGPSVFLFPPKPKDTLMISRTPEVTCVVVDVSHEEPEVKFNWYVDGVEVHNAKTKPREEQYNSTYRVVSVLTVLHQDWLNDKEYKCKVSNKALPAPIEKTISKAKGQPREPQVYTLPPSRDELTKNQVSLTCLVKGFYPSDIAVEWESNGQPENNYKTTPLVLDSDGSFFLYSKLTVDKSGWQQGNVFSCSVMHEALHNHYTQKSLSLSPGK | 1.22
Fc variant D270E K392T P396L (other, UniProt P01857-1 99-330, looked up, name in EU numbering, domain: Fc region; positions are EU index) EPKSCDKTHTCPPCPAPELLGGPSVFLFPPKPKDTLMISRTPEVTCVVVDVSHEEPEVKFNWYVDGVEVHNAKTKPREEQYNSTYRVVSVLTVLHQDWLNGKEYKCKVSNKALPAPIEKTISKAKGQPREPQVYTLPPSRDELTKNQVSLTCLVKGFYPSDIAVEWESNGQPENNYTTTPLVLDSDGSFFLYSKLTVDKSRWQQGNVFSCSVMHEALHNHYTQKSLSLSPGK | 1.81
Fc variant D270E P396L Q419H (other, UniProt P01857-1 99-330, looked up, name in EU numbering, domain: Fc region; positions are EU index) EPKSCDKTHTCPPCPAPELLGGPSVFLFPPKPKDTLMISRTPEVTCVVVDVSHEEPEVKFNWYVDGVEVHNAKTKPREEQYNSTYRVVSVLTVLHQDWLNGKEYKCKVSNKALPAPIEKTISKAKGQPREPQVYTLPPSRDELTKNQVSLTCLVKGFYPSDIAVEWESNGQPENNYKTTPLVLDSDGSFFLYSKLTVDKSRWQHGNVFSCSVMHEALHNHYTQKSLSLSPGK | 1.64

Field: next binder
Lab book: binding relative to wild-type Fc (fold) of Fc variant R255L D270E P396L (other, UniProt P01857-1 99-330, looked up, name in EU numbering, domain: Fc region; positions are EU index) EPKSCDKTHTCPPCPAPELLGGPSVFLFPPKPKDTLMISLTPEVTCVVVDVSHEEPEVKFNWYVDGVEVHNAKTKPREEQYNSTYRVVSVLTVLHQDWLNGKEYKCKVSNKALPAPIEKTISKAKGQPREPQVYTLPPSRDELTKNQVSLTCLVKGFYPSDIAVEWESNGQPENNYKTTPLVLDSDGSFFLYSKLTVDKSRWQQGNVFSCSVMHEALHNHYTQKSLSLSPGK noted as 1.34
